Test system: Enterobacter cloacae
measurement-notes: Antimicrobial activity against carbapenem-resistant Enterobacter cloacae isolated from ICU patient wound assessed as resistant isolates by broth microdilution method
Format: functional
Each entry below carries its reported Activity.
property-name: Activity (%)

1) C[C@@H](O)[C@H]1C(=O)N2C(C(=O)O)=C(S[C@@H]3CN[C@H](C(=O)N(C)C)C3)[C@H](C)[C@H]12 [MEROPENEM]; 0
2) NCC[C@H](O)C(=O)N[C@@H]1C[C@H](N)[C@@H](O[C@H]2O[C@H](CN)[C@@H](O)[C@H](O)[C@H]2O)[C@H](O)[C@H]1O[C@H]1O[C@H](CO)[C@@H](O)[C@H](N)[C@H]1O [AMIKACIN]; 0
3) CO/N=C(\C(=O)N[C@@H]1C(=O)N2C(C(=O)O)=C(CSc3nc(=O)c(O)nn3C)CS[C@H]12)c1csc(N)n1 [CEFTRIAXONE]; 5.9
4) C[C@H]1COc2c(N3CCN(C)CC3)c(F)cc3c(=O)c(C(=O)O)cn1c23.C[C@H]1COc2c(N3CCN(C)CC3)c(F)cc3c(=O)c(C(=O)O)cn1c23.O [LEVOFLOXACIN]; 5.9
5) CN(C)c1cc(NC(=O)CNC(C)(C)C)c(O)c2c1C[C@H]1C[C@H]3[C@H](N(C)C)C(O)=C(C(N)=O)C(=O)[C@@]3(O)C(O)=C1C2=O [TIGECYCLINE]; 0

* * *

System: Staphylococcus aureus
measurement-notes: Antimicrobial activity against methicillin-susceptible Staphylococcus aureus isolated from ICU patient respiratory tract assessed as resistant isolates by broth microdilution method
Format: functional
property-name: Activity (%)

1) CO/N=C(\C(=O)N[C@@H]1C(=O)N2C(C(=O)[O-])=C(C[N+]3(C)CCCC3)CS[C@H]12)c1csc(N)n1; 0
2) CN(C)c1cc(NC(=O)CNC(C)(C)C)c(O)c2c1C[C@H]1C[C@H]3[C@H](N(C)C)C(O)=C(C(N)=O)C(=O)[C@@]3(O)C(O)=C1C2=O [TIGECYCLINE]; 0
3) CC[C@H]1OC(=O)[C@H](C)[C@@H](O[C@H]2C[C@@](C)(OC)[C@@H](O)[C@H](C)O2)[C@H](C)[C@@H](O[C@@H]2O[C@H](C)C[C@H](N(C)C)[C@H]2O)[C@](C)(OC)C[C@@H](C)C(=O)[C@H](C)[C@@H](O)[C@]1(C)O [CLARITHROMYCIN]; 19.5
4) CO/N=C(\C(=O)N[C@@H]1C(=O)N2C(C(=O)O)=C(CSc3nc(=O)c(O)nn3C)CS[C@H]12)c1csc(N)n1 [CEFTRIAXONE]; 0

* * *

Each entry below carries its reported Activity.
Tested on: Staphylococcus aureus
measurement-notes: Antimicrobial activity against methicillin-susceptible Staphylococcus aureus isolated from ICU patient urine assessed as resistant isolates by broth microdilution method
Assay type: functional
property-name: Activity (%)

1. CO/N=C(\C(=O)N[C@@H]1C(=O)N2C(C(=O)[O-])=C(C[N+]3(C)CCCC3)CS[C@H]12)c1csc(N)n1; 0
2. CCCCCCCCCC(=O)N[C@@H](Cc1c[nH]c2ccccc12)C(=O)N[C@H](CC(N)=O)C(=O)N[C@@H](CC(=O)O)C(=O)N[C@@H]1C(=O)NCC(=O)N[C@@H](CCCN)C(=O)N[C@@H](CC(=O)O)C(=O)N[C@H](C)C(=O)N[C@@H](CC(=O)O)C(=O)NCC(=O)N[C@H](CO)C(=O)N[C@@H]([C@H](C)CC(=O)O)C(=O)N[C@@H](CC(=O)c2ccccc2N)C(=O)O[C@@H]1C; 0
3. C[C@H]1COc2c(N3CCN(C)CC3)c(F)cc3c(=O)c(C(=O)O)cn1c23.C[C@H]1COc2c(N3CCN(C)CC3)c(F)cc3c(=O)c(C(=O)O)cn1c23.O; 20
4. Cc1nnc(SCC2=C(C(=O)O)N3C(=O)[C@@H](NC(=O)Cn4cnnn4)[C@H]3SC2)s1; 0
5. CO/N=C(\C(=O)N[C@@H]1C(=O)N2C(C(=O)O)=C(CSc3nc(=O)c(O)nn3C)CS[C@H]12)c1csc(N)n1; 0
6. O=C(O)c1cn(C2CC2)c2cc(N3CCNCC3)c(F)cc2c1=O; 20

* * *

Tested on: Staphylococcus aureus
measurement-notes: Antimicrobial activity against methicillin-resistant Staphylococcus aureus isolated from ICU patient wound assessed as resistant isolates by broth microdilution method
Type: functional
So basically: is Activity under 80%? Then label 1. Not under? Then label 0.

1) C[C@@H](O)[C@H]1C(=O)N2C(C(=O)O)=C(S[C@@H]3CN[C@H](C(=O)N(C)C)C3)[C@H](C)[C@H]12 [MEROPENEM]; label 0
2) CO/N=C(\C(=O)N[C@@H]1C(=O)N2C(C(=O)O)=C(CSc3nc(=O)c(O)nn3C)CS[C@H]12)c1csc(N)n1 [CEFTRIAXONE]; label 0
3) C[C@H]1COc2c(N3CCN(C)CC3)c(F)cc3c(=O)c(C(=O)O)cn1c23.C[C@H]1COc2c(N3CCN(C)CC3)c(F)cc3c(=O)c(C(=O)O)cn1c23.O [LEVOFLOXACIN]; label 0
4) CN(C)c1cc(NC(=O)CNC(C)(C)C)c(O)c2c1C[C@H]1C[C@H]3[C@H](N(C)C)C(O)=C(C(N)=O)C(=O)[C@@]3(O)C(O)=C1C2=O [TIGECYCLINE]; label 1
5) CC(=O)NC[C@H]1CN(c2ccc(N3CCOCC3)c(F)c2)C(=O)O1 [LINEZOLID]; label 1
6) CO/N=C(\C(=O)N[C@@H]1C(=O)N2C(C(=O)[O-])=C(C[N+]3(C)CCCC3)CS[C@H]12)c1csc(N)n1; label 0
7) CN[C@H](CC(C)C)C(=O)N[C@H]1C(=O)N[C@@H](CC(N)=O)C(=O)N[C@H]2C(=O)N[C@H]3C(=O)N[C@H](C(=O)N[C@H](C(=O)O)c4cc(O)cc(O)c4-c4cc3ccc4O)[C@H](O)c3ccc(c(Cl)c3)Oc3cc2cc(c3O[C@@H]2O[C@H](CO)[C@@H](O)[C@H](O)[C@H]2O[C@H]2C[C@](C)(N)[C@H](O)[C@H](C)O2)Oc2ccc(cc2Cl)[C@H]1O [VANCOMYCIN]; label 1
8) O=C(O)c1cn(C2CC2)c2cc(N3CCNCC3)c(F)cc2c1=O [CIPROFLOXACIN]; label 0
9) Cc1nnc(SCC2=C(C(=O)O)N3C(=O)[C@@H](NC(=O)Cn4cnnn4)[C@H]3SC2)s1 [CEFAZOLIN]; label 0
10) COc1c(N2C[C@@H]3CCCN[C@@H]3C2)c(F)cc2c(=O)c(C(=O)O)cn(C3CC3)c12 [MOXIFLOXACIN]; label 0
11) CCCCCCCCCC(=O)N[C@@H](Cc1c[nH]c2ccccc12)C(=O)N[C@H](CC(N)=O)C(=O)N[C@@H](CC(=O)O)C(=O)N[C@@H]1C(=O)NCC(=O)N[C@@H](CCCN)C(=O)N[C@@H](CC(=O)O)C(=O)N[C@H](C)C(=O)N[C@@H](CC(=O)O)C(=O)NCC(=O)N[C@H](CO)C(=O)N[C@@H]([C@H](C)CC(=O)O)C(=O)N[C@@H](CC(=O)c2ccccc2N)C(=O)O[C@@H]1C; label 1

* * *

Test system: Escherichia coli
measurement-notes: Antimicrobial activity against CTX-M ESBL producing Escherichia coli isolated from ICU patient urine assessed as resistant isolates by broth microdilution method
Format: functional
Rule: Activity of 0.4% or more gives Y; anything lower gives N.

1) C[C@@H](O)[C@H]1C(=O)N2C(C(=O)O)=C(S[C@@H]3CN[C@H](C(=O)N(C)C)C3)[C@H](C)[C@H]12; N
2) CO/N=C(\C(=O)N[C@@H]1C(=O)N2C(C(=O)O)=C(CSc3nc(=O)c(O)nn3C)CS[C@H]12)c1csc(N)n1; Y
3) C[C@H]1COc2c(N3CCN(C)CC3)c(F)cc3c(=O)c(C(=O)O)cn1c23.C[C@H]1COc2c(N3CCN(C)CC3)c(F)cc3c(=O)c(C(=O)O)cn1c23.O; Y
4) NCC[C@H](O)C(=O)N[C@@H]1C[C@H](N)[C@@H](O[C@H]2O[C@H](CN)[C@@H](O)[C@H](O)[C@H]2O)[C@H](O)[C@H]1O[C@H]1O[C@H](CO)[C@@H](O)[C@H](N)[C@H]1O; N
5) Cc1nnc(SCC2=C(C(=O)O)N3C(=O)[C@@H](NC(=O)Cn4cnnn4)[C@H]3SC2)s1; Y
6) O=C(O)c1cn(C2CC2)c2cc(N3CCNCC3)c(F)cc2c1=O; Y
7) CN(C)c1cc(NC(=O)CNC(C)(C)C)c(O)c2c1C[C@H]1C[C@H]3[C@H](N(C)C)C(O)=C(C(N)=O)C(=O)[C@@]3(O)C(O)=C1C2=O; N
